Experiment: in vivo
Details: Sprague-Dawley, rat, iv, 2 mg/kg
measured quantity: AUC(0-t) (ng·h/mL)
Response body: numeric value in ng·h/mL, unit text excluded.

>>> test_value("CCC(CC)O[C@@H]1C=C(C(=O)O)C[C@H](NCc2ccc(OCc3cccc(B(O)O)c3)cc2C)[C@H]1NC(C)=O")
1370

Using the record for CCC(CC)O[C@@H]1C=C(C(=O)O)C[C@H](NCc2ccc(OCc3cccc(B(O)O)c3)cc2Cl)[C@H]1NC(C)=O , report its AUC(0-t).
747

----------
# maps each entry to its Tmax
Assay: Tmax in Sprague-Dawley rat at 2 mg/kg, iv measured for 15 to 1440 mins by LC-MS/MS analysis
Assay type: ADME, organism-based
Conditions: in vivo, time 15-1440 min
The answer is to be given in min; state only the numeric part.

>>> test_value("CCC(CC)O[C@@H]1C=C(C(=O)O)C[C@H](NCc2ccc(OCc3cccc(B(O)O)c3)cc2C)[C@H]1NC(C)=O")
4.98

Which measured Tmax value corresponds to CCC(CC)O[C@@H]1C=C(C(=O)O)C[C@H](NCc2ccc(OCc3cccc(B(O)O)c3)cc2Cl)[C@H]1NC(C)=O ?
4.98
